system: HT-1080 cells; experiment: Lethality of commercially available CIL41/70 structural analogs; assay type: cell-based; details: Homo sapiens, tested once in technical triplicates
Measured Attribute: EC50

Task item: Reported EC50 for CCC(Oc1ccccc1)C(=O)O/N=C(\N)Cc1ccc(Cl)cc1Cl (stereo not drawn) [CB140] : what is it?
Reply: 8.56 µg/mL

Task item: Moving on to N/C(Cc1ccc([N+](=O)[O-])cc1)=N\OC(=O)COc1ccccc1Cl [CB67]
Reply: > 20 µg/mL

Task item: Quick one: O=C(O/N=C1\CCCCCN1)C(Cl)Cl [EN3]
Reply: > 20 µg/mL

Task item: Can you handle Cc1nn(C/C(N)=N/OC(=O)Cn2nc(C(F)(F)F)cc2C2CC2)c(C)c1[N+](=O)[O-] [ZE9] next?
Reply: > 20 µg/mL

Task item: One more compound: N/C(Cc1ccc([N+](=O)[O-])cc1)=N\OC(=O)C(c1ccccc1)c1ccccc1 [CB56]
Reply: 4.05 µg/mL

Task item: How about this compound: CCC(=O)O/N=C(/N)Cn1nc(C(F)(F)F)cc1C [ZE6]
Reply: > 20 µg/mL

Task item: Now try CCc1ccc(OCC(=O)O/N=C(\N)Cc2cccc3ccccc23)cc1 [CB81] .
Reply: > 20 µg/mL

Task item: Now consider N/C(Cc1ccc([N+](=O)[O-])cc1)=N\OC(=O)COc1ccc(Br)cc1 [CB43] .
Reply: > 20 µg/mL

Task item: Same for N/C(Cc1ccc([N+](=O)[O-])cc1)=N\OC(=O)COc1cccc2ccccc12 [CB6]
Reply: > 20 µg/mL

----------
tested on: HT-1080; test: Modulatory profiling: Alamar Blue viability, lethal compound cotreated with death modulator (EC50, AUC); assay type: cell-based; conditions: HT-1080, modulator CspA
Please provide measured AUC HT.CspA for the entries that follow.
Number only, no unit.

Task item: State the recorded AUC HT.CspA for this entry: COc1ccc(N(C(=O)CCl)C(C(=O)NCCc2ccccc2)c2cccs2)cc1 (stereo not shown)
Reply: 5.8801E−05

Task item: Same for O=c1c(N2CCCC2)c(Cl)cnn1-c1ccccc1
Reply: −0.05648

Task item: Same again, this time with Cc1cccc(Cn2ncc(Cl)c(Cl)c2=O)c1
Reply: −0.004831

Task item: Same for COc1ccccc1/C=C/C1(C(=O)NC2CCCC2)CC(=O)N1c1ccc(F)cc1 (stereo not shown)
Reply: −0.04542

----------
tested on: BJeLR; test: Modulatory profiling: Alamar Blue viability, lethal compound cotreated with death modulator (EC50, AUC); type: cell-based, human; parameters: unit not given beside the values; conditions: BJeLR cells; lethal compound cotreated with modulator Nec-1; modulatory profile value (AUC)
So basically, if AUC, modulator BJ.Nec-1 comes in under -0.04 it's MET, and if it's -0.04 or more it's NOT MET.

Task item: Field: below-cutoff. Rule: recorded AUC, modulator BJ.Nec-1 strictly less than -0.04. Subject: CCCCNc1c(Cl)cnn(-c2ccccc2)c1=O [CIL36]
Reply: MET

Task item: What about CCc1ccc(/C=C2/SC(=O)N(CCC(C)NCCCN3CCOCC3)C2=O)cc1 (stereo not drawn) [CIL46] ?
Reply: NOT MET

Task item: Note, next up: Cc1cccc(Cn2ncc(Cl)c(Cl)c2=O)c1 [CIL60]
Reply: NOT MET

Task item: Also COc1nn(-c2ccccc2)c(=O)c(Cl)c1Cl [CIL23] , if possible.
Reply: NOT MET

Task item: For COc1cc2c(c(OC)c1OC)-c1ccc(OC)c(=O)cc1[C@@H](NC(C)=O)CC2 [Colchicine] then?
Reply: MET

Task item: Ok, now C=C(C)[C@H]1Cc2c(ccc3c2O[C@@H]2COc4cc(OC)c(OC)cc4[C@@H]2C3=O)O1 [Rotenone]
Reply: NOT MET

Task item: Another compound: CC1CC(C)(C)Nc2ccc(OC(=O)c3ccco3)cc21 (stereo not drawn) [CIL4]
Reply: NOT MET

Task item: What would you report for Cc1cc(C)c2c(=O)n(CC(=O)NCCCN3CCN(c4ccccc4F)CC3)sc2n1 [CIL50] ?
Reply: MET

Task item: How about CCCS(=O)(=O)c1nnnn1-c1cccc(OC)c1 [CIL15] ?
Reply: NOT MET

Task item: Try this compound too: O=S(=O)(c1ccc2c(c1)C(=NO)c1cc(S(=O)(=O)N3CCCCC3)ccc1-2)N1CCCCC1 [CIL56]
Reply: NOT MET

Task item: Another: C/C(=N\Nc1ncc(Cl)cc1Cl)c1ccccn1 [CIL64]
Reply: NOT MET

Task item: What about this compound? CC(/C=C/C(=O)NO)=C\[C@@H](C)C(=O)c1ccc(N(C)C)cc1 [TrichostatinA]
Reply: MET

----------
test system: HT-1080; assay: Modulatory profiling: Alamar Blue viability, lethal compound cotreated with death modulator (EC50, AUC); format: cell-based; design: unit not given beside the values; settings: HT-1080, modulator NAD+
Where a SMILES comes first, the peptide text is derived from it. The star is where a group is joined. Cbz = O=C(OCc1ccccc1)*
Provide the reported AUC HT.NAD+ of each item.
Response field accepts a number only; no unit should be typed.

Task item: # AUC HT.NAD+ lookup, item CC(C)C[C@@H](C=O)NC(=O)[C@H](CC(C)C)NC(=O)[C@H](CC(C)C)NC(=O)OCc1ccccc1 [MG132, reference compound] (Cbz-Leu-Leu-Leu-aldehyde)
Reply: 0.03798

Task item: Record: CCCS(=O)(=O)c1nnnn1-c1cccc(OC)c1
Reply: 0.01762

Task item: Same for CC(C)C[C@H](NC(=O)[C@H](CC(C)C)NC(=O)[C@H](CC(C)C)NC(=O)OCc1ccccc1)B(O)O
Reply: 0.07679

Task item: What do you have for N/C(=N\OC(=O)C12CC3CC(CC(C3)C1)C2)c1ccccc1 ?
Reply: −0.008657

Task item: What about CC(C(NNC(=O)c1ccc(C(F)(F)F)cc1)c1ccc(Br)cc1)[N+](=O)[O-] (stereo not shown) ?
Reply: −0.001926

Task item: Then this compound: [N-]=[N+]=[N-].[Na+]
Reply: 0.06683

Task item: Field entry: O=c1c(N2CCCC2)c(Cl)cnn1-c1ccccc1
Reply: 0.05985

Task item: Subsequent entry: Cc1cccc(Cn2ncc(Cl)c(Cl)c2=O)c1
Reply: 0.01526

Task item: Check O=C1C(Cl)=C(N2CCOCC2)C(=O)C(Cl)=C1N1CCOCC1 too.
Reply: 0.02582

Task item: Next entry: COc1cc([C@@H]2c3cc4c(cc3[C@@H](O[C@@H]3O[C@@H]5CO[C@@H](C)O[C@H]5[C@H](O)[C@H]3O)[C@H]3COC(=O)[C@H]23)OCO4)cc(OC)c1O [Etoposide]
Reply: 0.0527

Task item: # iterate: O=C(CCCCCN1C(=O)c2cccc3cccc(c23)C1=O)NO
Reply: 0.01064

Task item: Could you do the same for CC(C)C1CC(CCNCc2ccc3c(c2)OCO3)(c2ccccc2)CCO1 (stereo not shown) , please?
Reply: 0.04394

Task item: Now try Cc1cc(C)c2c(=O)n(CC(=O)NCCCN3CCN(c4ccccc4F)CC3)sc2n1 .
Reply: 0.009799

Task item: // next record O=C(CCl)N(c1ccccc1)c1c[nH]c2ccccc12
Reply: 0.03637

Task item: Another compound: O=P(Oc1ccccc1)(Oc1ccccc1)O[C@@H]1C=CS(=O)(=O)C1
Reply: −0.07144

Task item: How about C=CCC1(Cl)C(=O)C(Cl)=C(n2ccnc2)C1(OC)OC (stereo not shown) ?
Reply: 0.00781

Task item: Next: C(=N\Nc1nc2ccccc2s1)/c1ccccn1
Reply: 0.01945

Task item: Try the compound CC1(C)CC(=O)C2=C(C1)OC1=C(C(=O)CC(C)(C)C1)C2c1ccc(O)cc1O
Reply: −0.01689

Task item: Now the compound CC1CC(C)(C)Nc2ccc(OC(=O)c3ccco3)cc21 (stereo not shown)
Reply: −0.01381

Task item: Now give it for O=C(CCl)N(c1ccc(Cl)cc1)c1c[nH]c2ccccc12 too.
Reply: −0.002594

Task item: Another compound: CC(C)C[C@H](NC(=O)[C@H](Cc1ccccc1)NC(=O)c1cnccn1)B(O)O
Reply: 0.139

Task item: Please give the result for COc1cc([C@@H]2c3cc4c(cc3[C@H](O)[C@H]3COC(=O)[C@H]23)OCO4)cc(OC)c1OC too.
Reply: 0.1318

Task item: Now try OCCNCC(O)Cn1c2ccc(Br)cc2c2cc(Br)ccc21 (stereo not shown) .
Reply: 0.07707

Task item: # repeat for O=C1c2c(O)ccc(O)c2C(=O)c2c(NCCNCCO)ccc(NCCNCCO)c21
Reply: 0.1502

Task item: Ok, now COc1ccc(Nc2ccc3c(c2)=NC2(CCCCC2)[N+]=3[O-])cc1
Reply: 0.02617

Task item: # iterate: CC(C)=CCCC1=CCC(CNCCCN(C)C)C(C)C1 (stereo not shown)
Reply: 0.007089

Task item: Another compound: CCCCS(=O)(=O)/C=C\C=C/S(=O)(=O)CCCC
Reply: −0.01413

Task item: Follow-up entry: COc1cc2c(c(OC)c1OC)-c1ccc(OC)c(=O)cc1[C@@H](NC(C)=O)CC2
Reply: 0.1471

Task item: How about this compound: CS[C@H]1SC[C@H]2C(=O)N(C)[C@@H](C(C)C)C(=O)OC[C@@H](NC(=O)c3cnc4ccccc4n3)C(=O)N[C@@H](C)C(=O)N(C)[C@@H]1C(=O)N(C)[C@@H](C(C)C)C(=O)OC[C@@H](NC(=O)c1cnc3ccccc3n1)C(=O)N[C@@H](C)C(=O)N2C
Reply: 0.178

Task item: Now this one: COC(C)(C)C#CC(=O)c1cccc2ccccc12
Reply: −0.005535

Task item: Also COc1ccc(N(C(=O)CCl)C(C(=O)NCCc2ccccc2)c2cccs2)cc1 (stereo not shown) ?
Reply: 0.02441

Task item: CN(C)CC(O)Cn1c2ccc(Cl)cc2c2cc(Cl)ccc21 (stereo not shown) , same question.
Reply: 0.03421

Task item: How about CC1=CC(C)(C)Nc2ccc(OC(=O)c3cccnc3)cc21 ?
Reply: −0.02784

Task item: How about this compound: COc1ccc(-n2nnnc2S(=O)(=O)CC(=O)N2CCCCC2)cc1
Reply: −0.05465
